These entries and their values trace back to patent WO2016071355A1.

Target: T1, soluble extracellular region of human CD38 fused to a 6-His-tag (human, UniProt P28907 43-300)
T1 construct: also called human CD38 extracellular domain with a poly-histidine tag; human CD38 antigen
Experiment: SPR, antibody captured on protein G, CD38-His injected
Test readout: pKd
Quick note: pKd values are minus log10 of concentrations in mol/L.

Below, 2 binders whose answers are already recorded.
Binder	pKd
humanized 9G7 best-fit antibody (antibody, human IgG1, kappa, V domains shown, Human IgG1; also called 9G7 best-fit F36Y humanized variant) VH: QVTLKESGPTLVKPTQTLTLTCTFSGLSLSTSGKGVGWIRQPPGKALEWLAHIWWDDDKRYNPALKSRLTITKDTSKNQVVLTMTNMDPVDTATYYCARIELGRSYVMDYWGQGTLVTVSS VL: DIQMTQSPSSLSASVGDRVTITCQASQDVITSVAWYQQKPGKAPKLLIYSASYRYTGVPSRFSGSGSGTDFTFTISSLQPEDIATYYCQQHYTIPLTFGQGTKLEIKR	9.30
chimeric HB-7 antibody (antibody, human IgG1, kappa, V domains shown) VH: KVQLQESGPSLVQPSQRLSITCTVSGFSLISYGVHWVRQSPGKGLEWLGVIWRGGSTDYNAAFMSRLSITKDNSKSQVFFKMNSLQADDTAIYFCAKTLITTGYAMDYWGQGTTVTVSS VL: DIELTQSPSSFSVSLGDRVTITCKASEDIYNRLAWYQQKPGNAPRLLISGATSLETGVPSRFSGSGSGKDYTLSITSLQTEDVATYYCQQYWSTPTFGGGTKLEIKR	8.60

Suppose we examine the binder humanized HB-7 best-fit antibody (antibody, human IgG1, kappa, V domains shown, Human IgG1 format) VH: QVQLQESGPGLVKPSETLSLTCTVSGFSLISYGVHWVRQPPGKGLEWLGVIWRGGSTDYNAAFMSRLTISKDNSKNQVSLKLSSVTAADTAVYFCAKTLITTGYAMDYWGQGTLVTVSS VL: DIQLTQSPSSLSASVGDRVTITCRASEDIYNRLAWYQQKPGKAPKLLISGATSLETGVPSRFSGSGSGKDYTLTISSLQPEDFATYYCQQYWSTPTFGQGTKLEIKR ; what pKd value has been reported?
8.44
